Molecular target: UniProtKB P08912
Sequence (P08912 whole entry): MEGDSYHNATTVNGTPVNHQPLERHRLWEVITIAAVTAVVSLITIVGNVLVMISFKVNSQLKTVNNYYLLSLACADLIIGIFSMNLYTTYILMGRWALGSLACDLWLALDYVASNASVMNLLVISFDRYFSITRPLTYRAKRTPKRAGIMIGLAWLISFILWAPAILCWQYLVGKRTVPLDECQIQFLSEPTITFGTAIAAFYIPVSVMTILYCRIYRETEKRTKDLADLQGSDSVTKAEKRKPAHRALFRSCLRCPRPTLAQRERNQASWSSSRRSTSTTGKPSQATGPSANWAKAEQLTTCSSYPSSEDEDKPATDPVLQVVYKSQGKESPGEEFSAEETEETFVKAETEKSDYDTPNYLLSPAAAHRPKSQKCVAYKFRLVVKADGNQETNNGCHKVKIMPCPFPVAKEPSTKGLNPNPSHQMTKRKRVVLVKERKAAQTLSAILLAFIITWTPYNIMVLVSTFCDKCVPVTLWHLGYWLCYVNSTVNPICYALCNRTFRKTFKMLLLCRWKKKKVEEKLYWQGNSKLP
Assay: Agonist activity at M5-ACh receptor-FLASH/CFP expressed in HEK293 cells assessed as rate constant at 100 uM to 1 mM by FRET method
Assay type: functional, cell-based
Known Activity of a selection of compounds

compound | readoutUnits | Activity
CC(=O)OCC[N+](C)(C)C | s⁻¹ | 15.4
C[N+](C)(C)CC#CCN1CCCC1=O [OXOTREMORINE METHIODIDE] | s⁻¹ | 9.6
C[C@@H]1O[C@H](C[N+](C)(C)C)C[C@H]1O [MUSCARINE CHLORIDE] | s⁻¹ | 13.9
C[N+](C)(C)CCOC(N)=O | s⁻¹ | 14.7

Provenance of the data: ChEMBL document CHEMBL1671751
